- test_target: HeLa cell extract proteins (Homo sapiens, UniProt P51149)
- Construct: endogenous in cells; host or cells: HeLa cell extract
- Sequence (P51149 whole entry): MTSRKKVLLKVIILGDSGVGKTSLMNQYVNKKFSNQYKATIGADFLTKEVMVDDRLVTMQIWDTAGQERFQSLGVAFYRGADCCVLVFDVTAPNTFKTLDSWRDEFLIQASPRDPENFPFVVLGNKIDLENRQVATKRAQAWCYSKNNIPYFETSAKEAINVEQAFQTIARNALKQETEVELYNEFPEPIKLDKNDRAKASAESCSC
- Format: binding
- condition_summary: protein RAB7A; HeLa
experimental_readout: fold changes relative to vehicle control
// return a plain number; no unit text

[Q] Param item = CCCCCCOc1ccc(Cc2cnc(N)nc2N)cc1 [compound 1] ; retrieve measured fold changes relative to vehicle control.
[A] 1.21

----------
- test_target: HeLa cell extract proteins (Homo sapiens, UniProt Q16531)
- Construct: endogenous in cells; host or cells: HeLa cell extract
- Sequence (Q16531 whole entry): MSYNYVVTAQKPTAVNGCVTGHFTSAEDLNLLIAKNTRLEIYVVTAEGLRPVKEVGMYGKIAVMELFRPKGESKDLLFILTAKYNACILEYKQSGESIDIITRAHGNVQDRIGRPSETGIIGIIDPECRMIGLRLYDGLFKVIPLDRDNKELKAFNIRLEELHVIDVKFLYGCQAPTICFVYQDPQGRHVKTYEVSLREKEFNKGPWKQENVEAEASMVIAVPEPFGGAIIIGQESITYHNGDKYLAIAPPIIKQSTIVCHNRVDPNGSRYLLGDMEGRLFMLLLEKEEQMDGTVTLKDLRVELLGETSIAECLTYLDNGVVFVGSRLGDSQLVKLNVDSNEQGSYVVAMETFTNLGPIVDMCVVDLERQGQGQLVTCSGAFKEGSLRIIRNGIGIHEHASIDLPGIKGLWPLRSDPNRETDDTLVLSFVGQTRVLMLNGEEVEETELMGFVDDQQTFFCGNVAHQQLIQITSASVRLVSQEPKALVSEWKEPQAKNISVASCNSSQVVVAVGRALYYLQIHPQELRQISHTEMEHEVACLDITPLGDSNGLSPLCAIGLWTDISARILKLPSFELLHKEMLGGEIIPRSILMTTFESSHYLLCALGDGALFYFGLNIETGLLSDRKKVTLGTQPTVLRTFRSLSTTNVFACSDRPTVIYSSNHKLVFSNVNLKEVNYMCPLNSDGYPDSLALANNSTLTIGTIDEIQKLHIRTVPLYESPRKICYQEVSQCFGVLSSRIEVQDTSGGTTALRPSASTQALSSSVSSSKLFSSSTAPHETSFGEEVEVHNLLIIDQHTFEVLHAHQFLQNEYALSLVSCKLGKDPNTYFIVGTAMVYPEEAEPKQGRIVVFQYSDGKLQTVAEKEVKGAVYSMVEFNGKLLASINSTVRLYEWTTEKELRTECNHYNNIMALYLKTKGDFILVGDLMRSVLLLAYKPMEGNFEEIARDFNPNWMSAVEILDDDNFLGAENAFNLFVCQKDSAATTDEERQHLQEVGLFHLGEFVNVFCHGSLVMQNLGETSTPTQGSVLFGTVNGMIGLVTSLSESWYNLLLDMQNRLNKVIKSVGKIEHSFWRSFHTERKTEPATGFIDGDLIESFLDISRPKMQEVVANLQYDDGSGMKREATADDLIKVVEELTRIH
- Assay type: binding
- condition_summary: HeLa; protein DDB1
Outcome: 1 for fold changes relative to vehicle control of at least 1; -1 for anything lower.

[Q] Hello, I need to know if Nc1nc2c(c(=O)[nH]1)N(C=O)C(CNc1ccc(C(=O)N[C@@H](CCC(=O)O)C(=O)O)cc1)CN2 (stereo partly drawn) has measured fold changes relative to vehicle control not below 1. Thanks!
[A] -1

[Q] Hello, I need to know if NCCCNc1ccc(C(=O)NC(CCC(=O)O)C(=O)O)cc1 (stereo not drawn) has measured fold changes relative to vehicle control not below 1. Thanks!
[A] -1

[Q] Hello, I need to know if `CCCCCCOc1cccc(Cc2cnc(N)nc2N)c1` has measured fold changes relative to vehicle control not below 1. Thanks!
[A] 1

[Q] Hello, I need to know if `Nc1nc2cccc(-c3ccccc3)c2n1Cc1ccc(Cl)c(Cl)c1` has measured fold changes relative to vehicle control not below 1. Thanks!
[A] -1

[Q] Hello, I need to know if `CCCCCCOc1ccc(Cc2cnc(N)nc2N)cc1` has measured fold changes relative to vehicle control not below 1. Thanks!
[A] -1
